Recorded values, source the RNAGym collection of RNA variant scans (doi:10.1073/pnas.2313332121).

B1: TPR 5TU (parent)
chain: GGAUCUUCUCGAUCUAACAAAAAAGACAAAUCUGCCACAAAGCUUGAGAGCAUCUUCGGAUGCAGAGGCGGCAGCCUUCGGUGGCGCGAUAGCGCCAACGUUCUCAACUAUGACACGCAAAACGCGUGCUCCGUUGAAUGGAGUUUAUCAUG

Variants of: B1
Experiment: polymerase ribozyme fitness, log enrichment relative to wild type (log ratio); higher = more active; in vitro selection for triplet polymerase activity
This sample holds only a part of the variants without activity.
So basically: polymerase ribozyme fitness (log ratio) at -3 or higher? That is T. Lower than -3? That is F.

{"columns": ["Mutant id", "Label"],
 "data": [
  ["U53A A66C A89G G94C C99G", "F"],
  ["G50U G84A A91U C116A", "F"],
  ["C8U A19U G62A G86C A113C", "F"],
  ["A28G U53A", "F"],
  ["A22U C75G", "F"],
  ["A52C A60C C79U C93A G152U", "F"],
  ["A16U G50A C76U", "F"],
  ["U44G U45G C54U C87A", "F"],
  ["A52G G88U", "F"],
  ["U7G U15A G59C G124C G136A", "F"],
  ["A21U G128A", "F"],
  ["G50A C51U U55A G84A C87A C93A C108U G140C U146C", "F"],
  ["C38U G88C G126C A147C", "F"],
  ["A47U A97G A98G C116U A150U", "T"],
  ["G25U G50C C87G G136U", "F"],
  ["C43A G58C G81C C95U C96A A122U G126C G143C", "F"],
  ["G84A U148C", "T"],
  ["C99G C129A", "F"],
  ["U55A A73U C93A A122U", "F"],
  ["A28U A30C C79A", "F"],
  ["C43U G59C U77A U111C", "F"],
  ["U56G C85A C95A", "T"],
  ["G59C G71A A115G", "F"],
  ["U6G A28U C72U C87A", "F"],
  ["U135G A137U", "F"],
  ["C85U A89G A106G G117A G126C G143C", "F"],
  ["A30U C32G C54A C57G C99U A107G", "F"],
  ["A19C U31A C38A G80A A98U", "T"],
  ["G11A C14G A66U C87A A106U G143C", "F"],
  ["A23G G59U C95U A110G", "F"],
  ["C14U C87U U101C C118G", "F"],
  ["U56A A91G C95U C105G A120G", "F"],
  ["A20G A22U G141A", "T"],
  ["C5G A91U", "F"],
  ["C57G G65A U134C", "T"],
  ["G25U U45A", "F"],
  ["A12U G59A C75G U127G", "F"],
  ["C85U U146G", "T"],
  ["C14G U15G C18G U55G G68A", "F"],
  ["U6A A16U A107C C131G", "F"],
  ["U15C A64C G71A G100A C118U", "F"],
  ["U55A U134C", "T"],
  ["G94C A97U G136C", "F"],
  ["A3G G84A A98U", "T"]
]}
